- SUBJECT OF TEST: T1, Rat HER3: CD33-[Rat HER3, residues 20-643]-TAG (rat, UniProt Q62799 20-643)
- T1 construct: also called ra HER3-Tag; not shown: C-terminal TAG (e.g., FLAG TAG)
- PROCEDURE SUMMARY: SET, IgG vs soluble HER3-Tag
TEST READOUT: pKd
pKd here is simply -log10 of the concentration when that concentration is written in mol/L.

// solved cases for pKd follow
[[record]]
binder = "MOR12616 (antibody, human IgG1, kappa, V domains shown, tested as IgG) VH: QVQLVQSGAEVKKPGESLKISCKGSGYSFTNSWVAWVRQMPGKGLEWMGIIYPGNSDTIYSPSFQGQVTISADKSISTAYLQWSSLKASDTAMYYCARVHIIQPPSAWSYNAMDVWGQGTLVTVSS VL: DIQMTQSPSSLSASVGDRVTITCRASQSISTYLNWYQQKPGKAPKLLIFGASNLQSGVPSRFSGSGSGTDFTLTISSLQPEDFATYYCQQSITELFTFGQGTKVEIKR"
value_observed = 9.91

[[record]]
binder = "MOR14535 (antibody, human IgG1, kappa, V domains shown, tested as IgG) VH: EVQLVQSGAEVKKPGESLKISCKGSGYSFTTTWVAWVRQMPGKGLEWMGIIYPGLSDTIYSPSFQGQVTISADKSISTAYLQWSSLKASDTAMYYCARVHIIQPPSAWSYNAMDVWGQGTLVTVSS VL: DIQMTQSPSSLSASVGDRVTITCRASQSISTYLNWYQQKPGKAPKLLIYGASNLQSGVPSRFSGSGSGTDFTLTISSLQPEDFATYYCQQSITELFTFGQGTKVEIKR"
value_observed = 9.50

[[record]]
binder = "MOR12925 (antibody, human IgG1, kappa, V domains shown, tested as IgG) VH: QVQLVQSGAEVKKPGESLKISCKGSGYSFSNYWIAWVRQMPGKGLEWMGIIYPGNSDTIYSPSFQGQVTISADKSISTAYLQWSSLKASDTAMYYCARVHIIQPPSAWSYNAMDVWGQGTLVTVSS VL: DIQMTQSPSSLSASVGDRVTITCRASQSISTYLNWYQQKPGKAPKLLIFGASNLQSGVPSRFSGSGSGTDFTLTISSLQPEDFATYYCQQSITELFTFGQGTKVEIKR"
value_observed = 10.00


Shift focus to the following entry.
The reported pKd of the binder MOR12510 (antibody, human IgG1, kappa, V domains shown, tested as IgG) VH: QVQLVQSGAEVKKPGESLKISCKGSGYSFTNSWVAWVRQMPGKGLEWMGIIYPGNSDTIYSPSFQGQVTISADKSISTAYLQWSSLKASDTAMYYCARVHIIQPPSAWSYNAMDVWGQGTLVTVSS VL: DIQMTQSPSSLSASVGDRVTITCRASQSISTYLNWYQQKPGKAPKLLIFGASNLQSGVPSRFSGSGSGTDFTLTISSLQPEDFATYYCQQDIDEPWTFGQGTKVEIKR was 9.12
